Target: UniProtKB P25779
Sequence (P25779 123-467): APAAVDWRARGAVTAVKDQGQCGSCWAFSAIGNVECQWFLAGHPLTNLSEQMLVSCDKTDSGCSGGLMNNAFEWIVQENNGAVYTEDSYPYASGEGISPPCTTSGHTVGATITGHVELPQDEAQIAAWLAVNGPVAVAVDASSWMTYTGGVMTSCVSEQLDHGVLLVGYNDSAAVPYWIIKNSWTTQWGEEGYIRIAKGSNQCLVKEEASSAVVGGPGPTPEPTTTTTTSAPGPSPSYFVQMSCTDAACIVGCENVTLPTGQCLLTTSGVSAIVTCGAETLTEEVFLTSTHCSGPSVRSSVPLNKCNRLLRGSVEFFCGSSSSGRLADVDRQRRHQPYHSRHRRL
Assay: Inhibition of cruzain (conditions as for cathepsin L)
Format: biochemical, T. cruzi
Conditions: 50 mM acetate, pH 5.5, 2.5 mM EDTA, 2.5 mM DTT; Km 1 mM; Dixon plot; read-out: cruzain (Ki μM)
Under this convention, Satisfied denotes Ki strictly below 3 µM and Not satisfied denotes Ki at or above 3 µM.

Example cases with answers are listed next.
1. O=C(N[C@@H](CCc1ccccc1)CS(=O)(=O)c1ccccc1)[C@H](Cc1ccccc1)NC(=O)N1CCOCC1
Not satisfied
2. O=C(NC(CCc1ccccc1)S(=O)(=O)C(F)(F)F)[C@H](Cc1ccccc1)NC(=O)N1CCOCC1 (stereo partly drawn)
Satisfied
3. COC(=O)CCC(=O)N[C@@H](Cc1ccccc1)C(=O)N[C@@H](CCc1ccccc1)CCS(=O)(=O)c1ccccc1
Not satisfied

IN: Is it true that Ki reported for CC(C)C[C@H](NC(=O)N1CCOCC1)C(=O)NC(CCc1ccccc1)S(=O)(=O)Cc1ccccc1 (stereo partly drawn) is less than 3 µM?
OUT: Satisfied

IN: Is it true that Ki reported for O=C(N[C@@H](CCc1ccccc1)CCS(=O)(=O)c1ccccc1)[C@H](Cc1ccccc1)NC(=O)N1CCOCC1 is less than 3 µM?
OUT: Not satisfied

* * *

// Ki lookup, one value per entry
Target: cathepsin B (Homo sapiens)
Test: Inhibition of cathepsin B, fluorogenic substrate Z-Arg-Arg-AMC
Type: biochemical
Settings: 50 mM phosphate, pH 6.0, 2.5 mM EDTA, 2.5 mM DTT; Dixon plot; read-out: cathepsin B (Ki μM)
Experimental: The assay at 250 was started by the addition of cat B (final concentration approx 10 nM) and the increase in fluorescence at 450 nm with excitation at 380 nm was followed over 2 min. The depression in the rate of substrate hydrolysis following addition of varying concentrations of inhibitors was noted. The assay was linear throughout the range observed. Duplicate runs were measured. […]
The answer consists of two parts: a number and, after it, its unit.

1. O=C(N[C@@H](CCc1ccccc1)CCS(=O)(=O)c1ccc2ccccc2c1)[C@H](Cc1ccc2ccccc2c1)NC(=O)N1CCOCC1 [Mu--Np2-HphγSO2 Np]
20 µM
2. O=C(N[C@@H](CCc1ccccc1)CCS(=O)(=O)c1ccccc1)[C@H](Cc1ccccc1)NC(=O)N1CCOCC1 [Mu--Phe--HphγSO2 Ph]
48 µM

As a next step, examine the compound that follows.
IN: Tell me reported Ki for O=C(N[C@@H](CCc1ccccc1)CS(=O)(=O)c1ccccc1)[C@H](Cc1ccccc1)NC(=O)N1CCOCC1 [Mu--Phe--HphβSO2 Ph] , tested with cathepsin B (Homo sapiens).
OUT: 1100 µM

* * *

Biological target: cathepsin L (Homo sapiens, UniProt P07711)
Sequence (P07711 114-333, species assumed): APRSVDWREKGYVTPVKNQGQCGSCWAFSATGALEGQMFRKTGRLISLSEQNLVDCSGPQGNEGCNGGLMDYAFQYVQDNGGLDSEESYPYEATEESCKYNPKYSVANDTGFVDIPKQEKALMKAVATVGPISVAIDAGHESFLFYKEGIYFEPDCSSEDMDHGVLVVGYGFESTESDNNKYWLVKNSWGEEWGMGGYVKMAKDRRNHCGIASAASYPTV
Assay: Inhibition of cathepsin L, fluorogenic substrate Z-Phe-Arg-AMC
Format: biochemical
Readout Name: Ki
The answer consists of two parts: a number and, after it, its unit.

IN: Please look up its Ki: CCOP(=O)(CC[C@H](CCc1ccccc1)NC(=O)[C@H](Cc1ccccc1)NC(=O)N1CCOCC1)OCC
OUT: 3 µM

* * *

Target: cathepsin L (Homo sapiens)
Test: Inhibition of cathepsin L, fluorogenic substrate Z-Phe-Arg-AMC
Format: biochemical
Settings: 50 mM acetate, pH 5.5, 2.5 mM EDTA, 2.5 mM DTT; Dixon plot; read-out: cathepsin L (Ki μM)
Procedure: Conditions for cathepsin L: 50 mM acetate, pH 5.5, 2.5 mM EDTA, 2.5 mM DTT. substrate: [Z-Phe-Arg-AMC]=[…] (Km=2 mM). The assay at 25^0 was started by the addition of cat L (final concentration approx 1 nM) and the increase in fluorescence at 450 nm with excitation at 380 nm was followed over 2 min. The depression in the rate of substrate hydrolysis following addition of varying concentrations of inhibitors was noted. The assay was linear throughout the range observed. Duplicate runs were measured. […]
Under this convention, true denotes Ki strictly below 0.9 µM and false denotes Ki at or above 0.9 µM.

Example cases with answers are listed next.
1. O=C(CC[C@H](CCc1ccccc1)NC(=O)[C@H](Cc1ccccc1)NC(=O)N1CCOCC1)Nc1ccccc1 [Mu--Phe--HphγCONHPh]
false
2. NCCC(=O)N[C@@H](Cc1ccccc1)C(=O)N[C@@H](CCc1ccccc1)CCS(=O)(=O)c1ccccc1 [β-Ala--Phe--HphγSO2 Ph]
false
3. O=C(N[C@@H](CCc1ccccc1)CCS(=O)(=O)CCc1ccccc1)[C@H](Cc1ccccc1)NC(=O)N1CCOCC1 [Mu--Phe--HphγSO2 EtPh]
true
4. O=C(NC(CCc1ccccc1)S(=O)(=O)C(F)(F)F)[C@H](Cc1ccccc1)NC(=O)N1CCOCC1 (stereo partly shown) [Mu--Phe--HphαSO2 CR3]
true
5. O=C(N[C@@H](CCc1ccccc1)CCS(=O)(=O)c1ccc2ccccc2c1)[C@H](Cc1ccc2ccccc2c1)NC(=O)N1CCOCC1 [Mu--Np2-HphγSO2 Np]
true
6. CCOC(=O)CC[C@H](CCc1ccccc1)NC(=O)[C@H](Cc1ccccc1)NC(=O)N1CCOCC1 [Mu--Phe--HphγCO2 Et]
true
7. O=C(N[C@@H](CCc1ccccc1)CCS(=O)(=O)c1ccccc1)[C@H](Cc1ccc(O)cc1)NC(=O)N1CCOCC1 [Mu--Tyr--HphγSO2 Ph]
false
8. O=C(CC[C@H](CCc1ccccc1)NC(=O)[C@H](Cc1ccccc1)NC(=O)N1CCOCC1)NCc1ccccc1 [Mu--Phe--HphγCONHBzl]
false
9. O=C(NC(CCc1ccccc1)S(=O)(=O)Cc1ccccc1)[C@H](Cc1ccccc1)NC(=O)N1CCOCC1 (stereo partly shown) [Mu--Phe--HphαSO2 Bzl]
false
10. O=C(Cc1ccccc1)N[C@@H](Cc1ccccc1)C(=O)N[C@@H](CCc1ccccc1)CCS(=O)(=O)c1ccccc1 [Phac--Phe--HphγSO2 Ph]
true

IN: Is it true that Ki reported for CC(C)C[C@H](NC(=O)N1CCOCC1)C(=O)NC(CCc1ccccc1)S(=O)(=O)c1ccccc1 (stereo partly shown) [Mu--Leu--HphαSO2 Ph] is less than 0.9 µM?
OUT: false

IN: Is it true that Ki reported for Nc1ccc(CC[C@H](CCc2ccccc2)NC(=O)[C@H](Cc2ccccc2)NC(=O)N2CCOCC2)cc1 [Mu--Phe--Hph--γPh--NH2] is less than 0.9 µM?
OUT: false

IN: Is it true that Ki reported for COc1ccc(CC[C@H](CCc2ccccc2)NC(=O)[C@H](Cc2ccccc2)NC(=O)N2CCOCC2)cc1 [Mu--Phe--Hph-γPh--OMe] is less than 0.9 µM?
OUT: false

These entries and their values trace back to patent US5776718A.
